parameter_measured: melting point

compound_smiles: COc1ccc(-c2ccc(=O)n(Cc3ccc(C)c(F)c3)c2)cc1
melting point: 98 to 100 °C

compound_smiles: Cc1ccc(-c2ccc(=O)n(Cc3ccc(Cl)cc3)c2)cc1
melting point: 126 to 128 °C

compound_smiles: COc1ccc(-c2ccc(=O)n(Cc3ccccc3)c2)cn1
melting point: 180 to 181 °C

Challenge: GET /values?readout=melting point&item= CCOc1ccccc1-c1ccc(=O)n(Cc2ccc(Cl)cc2)c1
Response given: 120 to 121 °C

Challenge: GET /values?readout=melting point&item= O=c1ccc(-c2ccoc2)cn1Cc1ccc(Cl)cc1
Response given: 112 to 114 °C

Challenge: GET /values?readout=melting point&item= COc1ccc(-c2ccc(=O)n(Cc3ccc(C(F)(F)F)c(F)c3)c2)cc1
Response given: 82 to 84 °C

Challenge: GET /values?readout=melting point&item= Cc1ccc(-c2ccc(=O)n(Cc3ccc(Cl)cc3)c2)cc1F
Response given: 109 to 112 °C
